- Tgt: PI3K delta (Homo sapiens (Human), UniProt O00329)
- Sequence (O00329 other isoform, or with tags, fused parts or gaps linker GGGGGG): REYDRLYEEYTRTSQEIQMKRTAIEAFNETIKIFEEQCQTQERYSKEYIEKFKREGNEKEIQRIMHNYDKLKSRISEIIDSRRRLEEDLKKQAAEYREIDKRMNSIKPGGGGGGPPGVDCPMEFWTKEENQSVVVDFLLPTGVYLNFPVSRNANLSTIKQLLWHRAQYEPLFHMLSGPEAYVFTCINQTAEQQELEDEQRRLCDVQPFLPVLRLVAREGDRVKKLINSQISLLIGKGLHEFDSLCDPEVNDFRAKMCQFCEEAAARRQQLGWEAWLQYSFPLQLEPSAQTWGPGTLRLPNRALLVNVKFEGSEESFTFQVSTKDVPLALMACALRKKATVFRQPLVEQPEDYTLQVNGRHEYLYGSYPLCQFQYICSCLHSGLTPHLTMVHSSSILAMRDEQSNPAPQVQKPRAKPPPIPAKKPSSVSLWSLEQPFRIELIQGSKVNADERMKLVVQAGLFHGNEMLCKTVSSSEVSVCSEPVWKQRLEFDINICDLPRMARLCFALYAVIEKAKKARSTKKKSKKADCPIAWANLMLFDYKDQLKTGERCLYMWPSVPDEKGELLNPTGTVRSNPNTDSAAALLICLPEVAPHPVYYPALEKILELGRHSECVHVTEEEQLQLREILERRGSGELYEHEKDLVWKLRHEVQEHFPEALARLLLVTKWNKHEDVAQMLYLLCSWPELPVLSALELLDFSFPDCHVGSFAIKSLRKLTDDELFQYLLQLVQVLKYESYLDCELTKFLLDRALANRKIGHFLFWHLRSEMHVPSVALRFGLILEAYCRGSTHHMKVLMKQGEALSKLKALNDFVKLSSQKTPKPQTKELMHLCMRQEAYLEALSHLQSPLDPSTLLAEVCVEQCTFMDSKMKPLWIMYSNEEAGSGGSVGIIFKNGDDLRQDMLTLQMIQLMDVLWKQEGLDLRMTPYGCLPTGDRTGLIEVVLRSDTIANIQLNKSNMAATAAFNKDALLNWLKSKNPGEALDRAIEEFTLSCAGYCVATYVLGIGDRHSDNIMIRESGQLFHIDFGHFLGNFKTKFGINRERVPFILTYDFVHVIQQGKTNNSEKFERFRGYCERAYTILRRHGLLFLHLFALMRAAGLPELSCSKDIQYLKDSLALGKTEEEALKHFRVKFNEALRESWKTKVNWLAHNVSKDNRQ
- Measurement Description: Enzymatic PI3K delta isoform inhibition (lipid kinase activity, Kinase-Glo luminescence)
- Stated Conditions: Enzymatic assay
Readout Kind: pIC50
Lab note — pIC50 values are minus log10 of concentrations in M.

Record excerpt, results attached:
Quick check: pIC50 of Cc1cc(N2CCOc3ccc(O[C@H]4CCN(c5ncccn5)C4)cc32)cnc1S(C)(=O)=O [N] ? 7.92

Quick check: pIC50 of COc1ncc(N2CCOc3ccc(O[C@H]4CCN(C(=O)c5cncn5C)C4)cc32)cc1C#N [Example D31] ? 8.05

Quick check: pIC50 of COc1ncc(N2CCOc3ccc(O[C@H]4CCN(C(=O)C5CCS(=O)(=O)C5)C4)cc32)cc1F (single isomer, unassigned) [Example H12] ? 8.15

Quick check: pIC50 of CCC(=O)N1CC[C@H](Oc2ccc3c(c2)N(c2cnc(OC)c(S(=O)(=O)N4CCN(C)CC4)c2)CCO3)C1 [Example A18] ? 7.96

Quick check: pIC50 of COc1ncc(N2CCOc3ccc(O[C@H]4CCN(C(=O)C5CCS(=O)(=O)C5)C4)cc32)cc1C (single isomer, unassigned) [Example B28] ? 7.92

Now, please, on to the next compound.
Quick check: pIC50 of COc1ncc(N2CCOc3ccc(O[C@H]4CCN(C(=O)C5CCCOC5)C4)cc32)cc1C#N (stereo partly drawn) [Example C26] ? 5.49

====

- Tgt: PI3K alpha (Homo sapiens (Human), UniProt P42336)
- Sequence (P42336 other isoform, or with tags, fused parts or gaps): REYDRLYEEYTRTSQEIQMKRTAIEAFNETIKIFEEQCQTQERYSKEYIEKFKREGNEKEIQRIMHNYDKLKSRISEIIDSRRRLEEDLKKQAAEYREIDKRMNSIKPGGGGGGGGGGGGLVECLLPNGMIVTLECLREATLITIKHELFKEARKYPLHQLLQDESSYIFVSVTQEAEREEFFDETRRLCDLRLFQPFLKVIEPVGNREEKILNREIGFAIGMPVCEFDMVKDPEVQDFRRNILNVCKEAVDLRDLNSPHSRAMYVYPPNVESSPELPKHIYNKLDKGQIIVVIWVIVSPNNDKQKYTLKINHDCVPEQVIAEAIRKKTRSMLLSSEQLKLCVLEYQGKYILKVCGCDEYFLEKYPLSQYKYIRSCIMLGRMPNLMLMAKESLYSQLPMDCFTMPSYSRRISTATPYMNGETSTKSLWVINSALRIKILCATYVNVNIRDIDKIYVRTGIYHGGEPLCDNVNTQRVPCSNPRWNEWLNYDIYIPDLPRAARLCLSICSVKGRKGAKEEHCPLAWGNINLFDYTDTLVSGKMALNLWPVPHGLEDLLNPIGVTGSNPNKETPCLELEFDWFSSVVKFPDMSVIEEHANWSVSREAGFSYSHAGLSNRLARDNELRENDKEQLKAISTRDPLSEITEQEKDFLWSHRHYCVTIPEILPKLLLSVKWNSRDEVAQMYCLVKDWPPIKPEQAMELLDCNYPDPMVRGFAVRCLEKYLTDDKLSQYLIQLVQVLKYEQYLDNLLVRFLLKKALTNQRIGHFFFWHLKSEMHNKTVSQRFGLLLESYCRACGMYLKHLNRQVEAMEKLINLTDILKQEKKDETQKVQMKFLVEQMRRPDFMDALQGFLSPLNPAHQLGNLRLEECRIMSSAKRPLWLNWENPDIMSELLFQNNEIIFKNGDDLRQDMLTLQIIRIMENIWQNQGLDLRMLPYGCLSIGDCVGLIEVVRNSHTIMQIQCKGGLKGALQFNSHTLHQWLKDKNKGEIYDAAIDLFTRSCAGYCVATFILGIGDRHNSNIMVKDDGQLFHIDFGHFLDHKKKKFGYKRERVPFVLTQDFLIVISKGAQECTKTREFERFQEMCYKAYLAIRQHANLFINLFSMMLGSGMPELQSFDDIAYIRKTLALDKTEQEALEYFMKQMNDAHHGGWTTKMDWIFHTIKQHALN
- Measurement Description: Enzymatic PI3K alpha isoform inhibition (lipid kinase activity, Kinase-Glo luminescence)
- Stated Conditions: Enzymatic assay
Reported pIC50 is given for each of the following molecules.
Lab note — pIC50 values are minus log10 of concentrations in M.

Quick check: pIC50 of CCC(=O)N1CC[C@H](Oc2ccc3c(c2)N(c2cnc(OC)c(C(F)(F)F)c2)CCO3)C1 ? 6.66

Quick check: pIC50 of COc1cc(N2CCOc3ccc(O[C@H]4CCN(C(=O)CCS(C)(=O)=O)C4)cc32)cnc1OC ? 6.24

Quick check: pIC50 of COc1ncc(N2C[C@H](C)Oc3ccc(O[C@H]4CCN(C(=O)C5CCOCC5)C4)cc32)cc1C#N (single isomer, unassigned) ? 5.24

Quick check: pIC50 of COc1ncc(N2CCOc3cnc(O[C@H]4CCN(C(=O)C5CCS(=O)(=O)CC5)C4)cc32)cc1F ? 6.14

Quick check: pIC50 of COc1ncc(N2CCOc3ccc(O[C@H]4CCN(C(=O)C5CCS(=O)(=O)C5)C4)cc32)cc1C (single isomer, unassigned) [Example B27] ? 5.60

Quick check: pIC50 of COc1cc(N2CCOc3ccc(O[C@H]4CCN(C(=O)C5CCS(=O)(=O)CC5)C4)cc32)cnc1Cl ? 5.85

Quick check: pIC50 of CCOc1ncc(N2CCOc3ccc(O[C@H]4CCN(C(=O)C5CCOCC5)C4)cc32)cc1C ? 5.78

Quick check: pIC50 of COc1cc(N2CCOc3ccc(O[C@H]4CCN(C(=O)C5COCCO5)C4)cc32)cnc1OC (stereo partly shown) ? 6.75

Quick check: pIC50 of Cc1cc(N2CCOc3ccc(O[C@H]4CCN(C(=O)C5CCOC5)C4)cc32)cnc1S(C)(=O)=O (stereo partly shown) [Example B52] ? 6.25

Quick check: pIC50 of COc1ncc(N2CCOc3ccc(O[C@H]4CCN(C(=O)C5COCCO5)C4)cc32)cc1F (single isomer, unassigned) [Example H16] ? 6.06

Quick check: pIC50 of COc1ncc(N2CCOc3ccc(O[C@H]4CCN(C(=O)c5cnn(C)c5)C4)cc32)cc1C ? 6.47

Quick check: pIC50 of N#Cc1cncc(N2CCOc3ccc(O[C@H]4CCN(C(=O)C5CCOCC5)C4)cc32)c1 ? 5.72

Quick check: pIC50 of COc1ncc(N2CCOc3ccc(O[C@H]4CCN(C(=O)C5CCOC5)C4)cc32)cc1C (stereo partly shown) [Example B94] ? 6.38

====

- Tgt: PI3K delta (Homo sapiens (Human), UniProt O00329)
- Measurement Description: Enzymatic PI3K delta isoform inhibition (lipid kinase activity, Kinase-Glo luminescence)
- Stated Conditions: Enzymatic assay
Readout Kind: pIC50
Lab note — pIC50 values are minus log10 of concentrations in M.

Record excerpt, results attached:
Quick check: pIC50 of CCC(=O)N1CC[C@H](Oc2ccc3c(c2)N(c2cnc(OC)c(C#N)c2)CCO3)C1 ? 7.85

Quick check: pIC50 of COc1ncc(N2CCOc3ccc(O[C@H]4CCN(C(=O)c5ccnn5C)C4)cc32)cc1C#N ? 7.89

Now, please, on to the next molecule.
Quick check: pIC50 of COc1ncc(N2CCOc3ccc(O[C@H]4CCN(C(=O)c5cn(C)nc5C)C4)cc32)cc1C#N ? 7.92

====

- Tgt: PI3K delta (Homo sapiens (Human))
- Measurement Description: Enzymatic PI3K delta isoform inhibition (lipid kinase activity, Kinase-Glo luminescence)
- Stated Conditions: Enzymatic assay
Reported pIC50 is given for each of the following molecules.
Lab note — pIC50 values are minus log10 of concentrations in M.

Quick check: pIC50 of CCC(=O)N1CC[C@H](Oc2ccc3c(c2)N(c2ccc(OC)c(S(=O)(=O)N(C)C)c2)CCO3)C1 [Example A15] ? 6.74

Quick check: pIC50 of COc1ncc(N2CCOc3ccc(O[C@H]4CCN(C(=O)C5CCS(=O)(=O)CC5)C4)c(C)c32)cc1C [V] ? 7.10

---
Quick check: pIC50 of O=C(C1CCOCC1)N1CC[C@H](Oc2ccc3c(c2)N(c2ccc(C(F)(F)F)nc2)CCO3)C1 [Example A42] ? 7.52

Quick check: pIC50 of CCOc1ncc(N2CCOc3ccc(O[C@H]4CCN(C(=O)C5CCOCC5)C4)cc32)cc1C [Example B2] ? 7.59

Quick check: pIC50 of COc1cc(N2CCOc3ccc(O[C@H]4CCN(C(=O)C5CCOCC5)C4)cc32)cnc1S(C)(=O)=O [Example B9] ? 7.11

====

Reported pIC50 is given for each of the following molecules.
- Tgt: PI3K delta (Homo sapiens (Human), UniProt O00329)
- Measurement Description: Enzymatic PI3K delta isoform inhibition (lipid kinase activity, Kinase-Glo luminescence)
- Stated Conditions: Enzymatic assay
pIC50: −log10 of the molar value.

Record excerpt, results attached:
Quick check: pIC50 of COCC(=O)N1CC[C@H](Oc2ccc3c(c2)N(c2cnc(OC)c(C#N)c2)CCO3)C1 [Example D12] ? > 8.52

Quick check: pIC50 of Cc1cc(N2CCOc3ccc(O[C@H]4CCN(C(=O)C(C)C)C4)cc32)cnc1S(C)(=O)=O [Example B33] ? > 8.05

Now, please, on to the next molecule.
Quick check: pIC50 of COc1ncc(N2CCOc3ccc(O[C@H]4CCN(C(=O)C5CCC(OC)CC5)C4)cc32)cc1C#N (single isomer, unassigned) [Example D35] ? > 8.52
